Assay: chemical genetic growth profiling, strain panel (AID 1159580);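 note: tested at 20 µM; growth read once vehicle control cultures reached saturation at 30 °C; 1 = growth at the plate median or of vehicle wells; lower values mean less growth of the strain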
Details: S. cerevisiae deletion strains, growth OD, locus YHR142W, strain chs7, stronger effect = lower value
The campaign covered roughly 5,500 compounds. About 2,000 (36%) were called active. Not shown: some 18% with an inconclusive outcome. This is one part of the list.
measurement name: normalized growth

>  <molecule>
NCCCN

>  <measurement name>
normalized growth

>  <readout number>
0.976

$$$$
>  <molecule>
OC1(c2ccc(Cl)c(C(F)(F)F)c2)CCN(CCCC(c2ccc(F)cc2)c2ccc(F)cc2)CC1

>  <measurement name>
normalized growth

>  <readout number>
0.0949

$$$$
>  <molecule>
Cc1ccc(-c2nc3ccc(C)cn3c2CC(=O)N(C)C)cc1

>  <measurement name>
normalized growth

>  <readout number>
1.03

$$$$
>  <molecule>
CC1(C)[C@@H]2CC[C@@]1(C)C(=O)C2

>  <measurement name>
normalized growth

>  <readout number>
0.989

$$$$
>  <molecule>
COP(N)(=O)SC (configuration not stated)

>  <measurement name>
normalized growth

>  <readout number>
0.982

$$$$
>  <molecule>
CC1(C)S[C@@H]2C(N3C(=O)[C@@H](c4ccccc4)NC3(C)C)C(=O)N2[C@H]1C(=O)O (some centres not stated)

>  <measurement name>
normalized growth

>  <readout number>
1.05

$$$$
>  <molecule>
NCCCC(O)(P(=O)(O)O)P(=O)(O)O

>  <measurement name>
normalized growth

>  <readout number>
0.972

$$$$
>  <molecule>
CCC(=O)NCC[C@@H]1CCc2ccc3c(c21)CCO3

>  <measurement name>
normalized growth

>  <readout number>
0.989

$$$$
>  <molecule>
N#Cc1c(Cl)cccc1Cl

>  <measurement name>
normalized growth

>  <readout number>
0.976

$$$$
>  <molecule>
NCC(O)CC(=O)O (configuration not stated)

>  <measurement name>
normalized growth

>  <readout number>
1.02

$$$$
>  <molecule>
Oc1ccc([C@H]2Oc3cc(O)cc(O)c3C[C@H]2O)cc1

>  <measurement name>
normalized growth

>  <readout number>
0.993

$$$$
>  <molecule>
Cc1c(OCC(F)(F)F)ccnc1CS(=O)c1nc2ccccc2[nH]1 (configuration not stated)

>  <measurement name>
normalized growth

>  <readout number>
1.02

$$$$
>  <molecule>
O=C(CCCN1CCN(c2ccccn2)CC1)c1ccc(F)cc1

>  <measurement name>
normalized growth

>  <readout number>
0.87

$$$$
>  <molecule>
CCCCC(=O)O[C@]1(C(=O)CO)[C@@H](C)CC2C3CCC4=CC(=O)C=C[C@]4(C)[C@@]3(F)C(O)C[C@@]21C (some centres not stated)

>  <measurement name>
normalized growth

>  <readout number>
0.943

$$$$
>  <molecule>
CCC(=O)OCC(=O)C1(OC(=O)CC)C(C)CC2C3C(Cl)CC4=CC(=O)C=CC4(C)C3C(O)CC21C (configuration not stated)

>  <measurement name>
normalized growth

>  <readout number>
1.04

$$$$
>  <molecule>
O=C(Oc1ccccc1C(=O)O)c1ccccc1O

>  <measurement name>
normalized growth

>  <readout number>
0.982

$$$$
>  <molecule>
CC(=O)Oc1ccccc1C(=O)Oc1ccccc1C(=O)O

>  <measurement name>
normalized growth

>  <readout number>
1.01

$$$$
>  <molecule>
Oc1ccc2c3c1OC1[C@@H](O)CC[C@@]4(O)[C@@H](C2)N(CC2CCC2)CC[C@]314 (some centres not stated)

>  <measurement name>
normalized growth

>  <readout number>
1.01

$$$$
>  <molecule>
O=C1CC2(CCCC2)CC(=O)N1CCCCN1CCN(c2ncccn2)CC1

>  <measurement name>
normalized growth

>  <readout number>
1.02

$$$$
>  <molecule>
CCC(=O)O[C@]1(C(=O)CCl)[C@@H](C)CC2C3CCC4=CC(=O)C=C[C@]4(C)[C@@]3(F)[C@@H](O)C[C@@]21C (some centres not stated)

>  <measurement name>
normalized growth

>  <readout number>
1.01

$$$$
>  <molecule>
CO[C@@H]1[C@@H](OC(N)=O)[C@@H](O)[C@H](Oc2ccc3c(O)c(NC(=O)c4ccc(O)c(CC=C(C)C)c4)c(=O)oc3c2C)OC1(C)C

>  <measurement name>
normalized growth

>  <readout number>
1.01

$$$$
>  <molecule>
CCn1nc(C(=O)O)c(=O)c2cc3c(cc21)OCO3

>  <measurement name>
normalized growth

>  <readout number>
1.01

$$$$

###

Assay: chemical genetic growth profiling, strain panel (AID 1159580);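 note: tested at 20 µM; growth read once vehicle control cultures reached saturation at 30 °C; 1 = growth at the plate median or of vehicle wells; lower values mean less growth of the strain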
Settings: S. cerevisiae deletion strains, growth OD, locus YGL167C, strain pmr1, stronger effect = lower value
Among all 5,500 compounds or so, about 2,000 (36%) were called active. Inconclusive results (about 18%) are left out. The list shows a part of the results.
Listing: normalized growth of selected compounds

>  <compound>
Cc1c(OCC(F)(F)F)ccnc1CS(=O)c1nc2ccccc2[nH]1 (centres undefined)

>  <normalized growth>
1.03

$$$$
>  <compound>
O=c1c2cc(O)c(O)cc2oc2cc(O)c(C3O[C@H](CO)[C@H](O)[C@@H](O)[C@H]3O)c(O)c12 (some centres undefined)

>  <normalized growth>
1.03

$$$$
>  <compound>
CC1(C)C(O)CC(=O)C2(C)C1CC(O)C1(C)C2CCC2(C)C(c3ccoc3)OC(=O)C3OC321 (centres undefined)

>  <normalized growth>
1.01

$$$$
>  <compound>
C[C@@H]1CC[C@@]23CCC4(C)[C@@](C=CC5[C@@]6(C)CC[C@H](O)C(C)(C)C6CC[C@]54C)(OC2=O)C3[C@H]1C (some centres undefined)

>  <normalized growth>
1.02

$$$$

###

Experiment: chemical genetic growth profiling, strain panel (AID 1159580);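 note: tested at 20 µM; growth read once vehicle control cultures reached saturation at 30 °C; 1 = growth at the plate median or of vehicle wells; lower values mean less growth of the strain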
Conditions: S. cerevisiae deletion strains, growth OD, locus YDR101C, strain arx1, stronger effect = lower value
The whole screen tested about 5,500 compounds, of which about 2,000 (36%) were called active. Not shown: some 18% with an inconclusive outcome. The list shows a part of the results.
Listed here are compounds together with their documented normalized growth.

>  <compound>
CC12CCC3C(CCC4(O)CC(O)CCC34/C=N/NC(N)=O)C1(O)CCC2C1=CC(=O)OC1 (stereo not drawn)

>  <normalized growth>
1.01

$$$$
>  <compound>
C[C@H]1OC(O[C@H]2[C@@H](O)CC(O[C@H]3[C@@H](O)C[C@H](O[C@H]4CC[C@]5(C)C6CC[C@]7(C)[C@@H](C8=CC(=O)OC8)[C@@H](O)C[C@]7(O)[C@@H]6CC[C@@H]5C4)O[C@@H]3C)O[C@@H]2C)C[C@H](O)C1O (stereo partly drawn)

>  <normalized growth>
0.991

$$$$
>  <compound>
C[C@H]1O[C@@H](O[C@H]2[C@@H](O)C[C@H](O[C@H]3[C@@H](O)C[C@H](O[C@H]4CC[C@]5(C)C6CC[C@]7(C)[C@@H](C8=CC(=O)OC8)CC[C@]7(O)C6CC[C@@H]5C4)O[C@@H]3C)O[C@@H]2C)C[C@H](O)[C@@H]1O (stereo partly drawn)

>  <normalized growth>
1.01

$$$$

###

Experiment: chemical genetic growth profiling, strain panel (AID 1159580);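 note: tested at 20 µM; growth read once vehicle control cultures reached saturation at 30 °C; 1 = growth at the plate median or of vehicle wells; lower values mean less growth of the strain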
Settings: S. cerevisiae deletion strains, growth OD, locus YFL029C, strain CAK1, stronger effect = lower value
Among all 5,500 compounds or so, about 2,000 (36%) were called active. Roughly 18% stayed inconclusive and do not appear here. This is one part of the list.

>  <molecule>
N/C(=N/OC(=O)Nc1cccc(C(F)(F)F)c1)c1ccc(OC(F)(F)F)cc1

>  <normalized growth>
0.981

$$$$
>  <molecule>
CN1/C(=C/C=C/c2ccc3ccccc3[n+]2C)C=Cc2ccccc21

>  <normalized growth>
0.603

$$$$
>  <molecule>
ONC(=Nc1ccccc1Cl)c1ccccc1Cl

>  <normalized growth>
0.996

$$$$
>  <molecule>
COC(=O)/C=C1/OC(c2ccc(OC)cc2)=CC1=O

>  <normalized growth>
0.177

$$$$
>  <molecule>
Cc1cc(-c2onc(C)c2C(=O)Sc2ccccc2)no1

>  <normalized growth>
0.921

$$$$
>  <molecule>
O=c1cc(CSc2ccc(Cl)cc2)c2ccc(O)cc2o1

>  <normalized growth>
0.943

$$$$
>  <molecule>
O=C(OCc1ccccc1Br)c1cc([N+](=O)[O-])cc([N+](=O)[O-])c1

>  <normalized growth>
0.975

$$$$
>  <molecule>
CCn1nc(C)cc1C(=O)Sc1cccc(Br)c1

>  <normalized growth>
0.904

$$$$
>  <molecule>
O=C(NNc1cc(C(F)(F)F)cc(C(F)(F)F)c1)c1cnc2n(c1=O)CCS2

>  <normalized growth>
1

$$$$
>  <molecule>
COc1ccc(Br)c(C(=O)/C(C#N)=C/c2cccs2)c1

>  <normalized growth>
0.724

$$$$
>  <molecule>
COc1ccc(N=C2SCC(c3ccc(C)cc3)=NN2CCO)cc1

>  <normalized growth>
0.964

$$$$
>  <molecule>
O=C(O/N=C1/CCCc2[nH]c3ccccc3c21)c1ccc(Cl)cc1Cl

>  <normalized growth>
0.98

$$$$
>  <molecule>
Clc1cccc(Cl)c1C1CC(c2ccccc2)=Nc2ccccc2S1 (stereo not given)

>  <normalized growth>
0.98

$$$$
>  <molecule>
O=C(Nc1cc2ccccc2s1)N1CCN(Cc2c(F)cccc2Cl)CC1

>  <normalized growth>
0.984

$$$$
>  <molecule>
CC1(C)C=Cc2cc(/C(N)=N\OC(=O)Nc3cccc(C(F)(F)F)c3)ccc2O1

>  <normalized growth>
0.982

$$$$
>  <molecule>
CC(C)(C)NC(=S)N/N=C\c1cc(Br)c(O)c(Br)c1

>  <normalized growth>
0.958

$$$$
>  <molecule>
OC(COCc1ccccc1)Cn1c2ccccc2c2ccccc21 (stereo not given)

>  <normalized growth>
0.947

$$$$
>  <molecule>
N/C(=N/OC(=O)c1cnn(-c2ccc([N+](=O)[O-])cc2)c1C(F)(F)F)c1ccc(Cl)cc1

>  <normalized growth>
0.973

$$$$
>  <molecule>
CO/N=C1/CC(C)(C)Cc2c(-c3ccn(C(=O)Nc4cccc(Cl)c4)n3)sc(SC)c21

>  <normalized growth>
0.978

$$$$
>  <molecule>
O=C(O/N=C1/CCCc2[nH]c3ccccc3c21)C1CCCCC1

>  <normalized growth>
0.966

$$$$

Origin of values: PubChem BioAssay AID1159580
